Measured EC50 accompanies every entry in the list below.
# measurement_target: T1, human CD47 on cells (human, UniProt Q08722 19-323)
# T1 construct: also called CHO-K1/huCD47; human CD47 over-expressed in CHO-K1 cells
# measurement_description: flow cytometry on CHO-K1/huCD47 cells; x axis Log(nM), unit taken from the axis
property: EC50 (nM)

binder	property	assay_value
108C10A6 (antibody, V domains shown, also called murine anti-CD47 antibody 108C10A6; 108C10A6/108C10F5) VH: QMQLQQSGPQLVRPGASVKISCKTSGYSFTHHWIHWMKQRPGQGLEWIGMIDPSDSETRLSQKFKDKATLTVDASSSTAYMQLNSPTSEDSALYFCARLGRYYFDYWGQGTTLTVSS VL: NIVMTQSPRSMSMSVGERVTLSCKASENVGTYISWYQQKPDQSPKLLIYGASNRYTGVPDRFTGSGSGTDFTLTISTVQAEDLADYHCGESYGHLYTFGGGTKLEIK	EC50	8.59
98E2E12 (antibody, V domains shown, purified murine anti-CD47 hybridoma antibody; same VH and VL as 98E2E7; also called 04-98E2E12) VH: QVQLQQSGPQLVRPGASVKISCKASGYSFTNHWMHWMKQRPGQGLEWIGMIDPSDSETRLNQQFKDKATLTVDKSSSTAYMQLSSPTSEDSAVFYCARLGRYYFDYWGQGTTLTVSS VL: NIVMTQSPKSMSVSVGERVTLSCRASDIVGTYVSWYQQKPEQSPKLLIYGASNRYTGVPDRFTGSRSATDFSLTISNVQAEDLADYLCGQSYDSPYTFGGGTKLEIK	EC50	8.21
98G5F6 (antibody, V domains shown, purified murine anti-CD47 hybridoma antibody; same VH and VL as 98G5F11; also called 05-98G5F6) VH: QVQLQQSGPQLVRPGASVKISCKASGYSFTNYWMHWMKQRPGQGLEWIGMIDPSDSETRLNQQFKDKATLTVDKSSSTAYMQLSSPTSEDSAVYYCARLGRYYFDFWGQGTTLTVSS VL: NIVMTQSPKSMSVSVGERVTLSCRASEIVGTYVSWYQQKPEQSPKLLIYGASNRFTGVPDRFTGSRSATDFSLTISNVQAEDLADYLCGQSYDSPYTFGGGTKLEIK	EC50	3.48
